- System: UMC-11
- experiment.notes: relative viability (nuclei count vs DMSO), 5 days (fraction); higher = more cells survive
- condition.details: first compound 0.04 µM
measurement.kind: relative viability
Output spec: single numeric token, no unit.

Look up relative viability for this compound: Clc1ccc(Nc2nnc(Cc3ccncc3)c3ccccc23)cc1 [Vatalanib] + CS(=O)(=O)CCNCc1ccc(-c2ccc3ncnc(Nc4ccc(OCc5cccc(F)c5)c(Cl)c4)c3c2)o1 [Lapatinib] (partner 2 µM) 0.924

Look up relative viability for this compound: Clc1ccc(Nc2nnc(Cc3ccncc3)c3ccccc23)cc1 [Vatalanib] + CC1(C)CCC(c2ccc(Cl)cc2)=C(CN2CCN(c3ccc(C(=O)NS(=O)(=O)c4ccc(N[C@H](CCN5CCOCC5)CSc5ccccc5)c(S(=O)(=O)C(F)(F)F)c4)cc3)CC2)C1 [Navitoclax] (partner 0.5 µM) 0.274

Look up relative viability for this compound: Clc1ccc(Nc2nnc(Cc3ccncc3)c3ccccc23)cc1 [Vatalanib] + CC(=O)c1c(C)c2cnc(Nc3ccc(N4CCNCC4)cn3)nc2n(C2CCCC2)c1=O [Palbociclib] (partner 0.5 µM) 0.3

Look up relative viability for this compound: COc1cc(N2CCC(C(N)=O)CC2)ccc1Nc1nc(N)c(Cl)c(Nc2ccccc2S(=O)(=O)C(C)C)n1 [HG-5-88-01] + C[C@@H](Oc1cc(-c2cnn(C3CCNCC3)c2)cnc1N)c1c(Cl)ccc(F)c1Cl [Crizotinib] (partner 1 µM) 0.652

* * *

- Test system: NCI-H1355
- experiment.notes: relative viability (nuclei count vs DMSO), 5 days (fraction); higher = more cells survive
- condition.details: first compound 1.265 µM
Task for the reader: assign each of the following compounds its reported relative viability.
Output spec: single numeric token, no unit.

Missing value: relative viability, NCI-H1355, entry COc1cc(N2CCC(C(N)=O)CC2)ccc1Nc1nc(N)c(Cl)c(Nc2ccccc2S(=O)(=O)C(C)C)n1 [HG-5-88-01] + COc1cc2c(Oc3ccc(NC(=O)C4(C(=O)Nc5ccc(F)cc5)CC4)cc3F)ccnc2cc1OCCCN1CCOCC1 [Foretinib] (partner 0.25 µM) . Fill in? 0.96

Missing value: relative viability, NCI-H1355, entry Clc1ccc(Nc2nnc(Cc3ccncc3)c3ccccc23)cc1 [Vatalanib] + C[C@]1(O)C[C@@H](c2nc(-c3ccc4ccc(-c5ccccc5)nc4c3)c3c(N)nccn32)C1 [Linsitinib] (partner 1 µM) . Fill in? 0.772

Missing value: relative viability, NCI-H1355, entry COc1cc(N2CCC(C(N)=O)CC2)ccc1Nc1nc(N)c(Cl)c(Nc2ccccc2S(=O)(=O)C(C)C)n1 [HG-5-88-01] + CC(=O)c1c(C)c2cnc(Nc3ccc(N4CCNCC4)cn3)nc2n(C2CCCC2)c1=O [Palbociclib] (partner 0.5 µM) . Fill in? 0.338

Missing value: relative viability, NCI-H1355, entry COc1cc(N2CCC(C(N)=O)CC2)ccc1Nc1nc(N)c(Cl)c(Nc2ccccc2S(=O)(=O)C(C)C)n1 [HG-5-88-01] + Cc1cc(Nc2cc(N3CCN(C)CC3)nc(Sc3ccc(NC(=O)C4CC4)cc3)n2)n[nH]1 [Tozasertib] (partner 0.1 µM) . Fill in? 0.454

Missing value: relative viability, NCI-H1355, entry Clc1ccc(Nc2nnc(Cc3ccncc3)c3ccccc23)cc1 [Vatalanib] + C[C@@H](Oc1cc(-c2cnn(C3CCNCC3)c2)cnc1N)c1c(Cl)ccc(F)c1Cl [Crizotinib] (partner 1 µM) . Fill in? 0.886

Missing value: relative viability, NCI-H1355, entry COc1cc(N2CCC(C(N)=O)CC2)ccc1Nc1nc(N)c(Cl)c(Nc2ccccc2S(=O)(=O)C(C)C)n1 [HG-5-88-01] + CS(=O)(=O)CCNCc1ccc(-c2ccc3ncnc(Nc4ccc(OCc5cccc(F)c5)c(Cl)c4)c3c2)o1 [Lapatinib] (partner 2 µM) . Fill in? 0.917

Missing value: relative viability, NCI-H1355, entry Clc1ccc(Nc2nnc(Cc3ccncc3)c3ccccc23)cc1 [Vatalanib] + Nc1nc2[nH]cc(CCc3ccc(C(=O)N[C@@H](CCC(=O)O)C(=O)O)cc3)c2c(=O)[nH]1 [Pemetrexed] (partner 0.2 µM) . Fill in? 0.979

Missing value: relative viability, NCI-H1355, entry COc1cc(N2CCC(C(N)=O)CC2)ccc1Nc1nc(N)c(Cl)c(Nc2ccccc2S(=O)(=O)C(C)C)n1 [HG-5-88-01] + Cc1nc(Nc2ncc(C(=O)Nc3c(C)cccc3Cl)s2)cc(N2CCN(CCO)CC2)n1 [Dasatinib] (partner 0.075 µM) . Fill in? 0.574
